TGT: Nucleic Acid
TEST_METHOD_NOTES: Binding activity at antiterminator RNA AM1A(C11U) after 10 mins
Type: nucleic-acid assay
PROPERTY_LABEL: pKd
Numbers only, as −log10 of the molar value.

Exam item: Determine from records and report pKd for `O=C(Cc1ccccc1)OC[C@H]1OC(=O)N[C@@H]1Cc1ccccc1`
Marked response: 3.90

Now for another entry.
Exam item: Please report the measured pKd for `COc1ccc(N2C(=O)O[C@H](COC(=O)Cc3ccccc3)[C@H]2Cc2ccccc2)cc1`
Marked response: 4.60

* * *

TGT: Nucleic Acid
TEST_METHOD_NOTES: Binding activity at antiterminator RNA AM1A(C11U) after 120 mins
Assay type: nucleic-acid assay
PROPERTY_LABEL: Kd (µM)
One number for each entry, in µM.

Exam item: Note Kd for the compound shown: `CCCCCCC(=O)OC[C@H]1OC(=O)N[C@@H]1Cc1ccccc1`
Marked response: 14.3
